Examples of compounds with documented IC50 follow.
Biological target: UniProtKB P49840
Sequence (P49840 whole entry): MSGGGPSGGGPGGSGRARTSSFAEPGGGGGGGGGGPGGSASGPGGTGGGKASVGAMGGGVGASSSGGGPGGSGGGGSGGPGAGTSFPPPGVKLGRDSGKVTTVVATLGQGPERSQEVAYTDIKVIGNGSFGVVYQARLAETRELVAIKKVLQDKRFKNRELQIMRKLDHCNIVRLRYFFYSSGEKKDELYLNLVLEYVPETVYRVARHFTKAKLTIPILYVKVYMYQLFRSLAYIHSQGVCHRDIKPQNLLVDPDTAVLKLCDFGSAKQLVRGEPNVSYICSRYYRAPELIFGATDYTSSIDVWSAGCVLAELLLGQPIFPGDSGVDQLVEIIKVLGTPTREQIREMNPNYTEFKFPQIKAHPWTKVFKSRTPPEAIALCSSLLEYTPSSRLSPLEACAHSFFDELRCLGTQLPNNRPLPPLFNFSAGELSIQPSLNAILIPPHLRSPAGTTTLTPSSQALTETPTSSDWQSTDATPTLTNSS
Answer format: numeric, nM implied, no suffix.

Cc1ccc(-n2nc(C(C)C)cc2NC(=O)Nc2ccc(Oc3ccnc(Nc4cccc(OS(C)(=O)=O)c4)n3)c3ccccc23)cc1 [Example 11] :: 8650
COc1cc(Nc2nccc(Oc3ccc(NC(=O)Nc4cc(C(C)(C)C)nn4-c4ccc(C)cc4)c4ccccc34)n2)cc(SCCCO)c1 [Example 48] :: 2050

Proceeding to the next compound to report its IC50.
Look up and report IC50, with UniProtKB P49840 as system, for COc1cc(Nc2nccc(Oc3ccc(NC(=O)Nc4cc(C(C)(C)C)nn4-c4ccc(C)cc4)c4ccccc34)n2)cc(SCCN2CCOCC2)c1 [Example 41] 2820
